# System name: T1, orthogonal hCD122 receptor (hoRb), hCD122 with H133D and Y134F (human, UniProt P14784 27-550); note: reference of the scale not given here
# T1 sequence: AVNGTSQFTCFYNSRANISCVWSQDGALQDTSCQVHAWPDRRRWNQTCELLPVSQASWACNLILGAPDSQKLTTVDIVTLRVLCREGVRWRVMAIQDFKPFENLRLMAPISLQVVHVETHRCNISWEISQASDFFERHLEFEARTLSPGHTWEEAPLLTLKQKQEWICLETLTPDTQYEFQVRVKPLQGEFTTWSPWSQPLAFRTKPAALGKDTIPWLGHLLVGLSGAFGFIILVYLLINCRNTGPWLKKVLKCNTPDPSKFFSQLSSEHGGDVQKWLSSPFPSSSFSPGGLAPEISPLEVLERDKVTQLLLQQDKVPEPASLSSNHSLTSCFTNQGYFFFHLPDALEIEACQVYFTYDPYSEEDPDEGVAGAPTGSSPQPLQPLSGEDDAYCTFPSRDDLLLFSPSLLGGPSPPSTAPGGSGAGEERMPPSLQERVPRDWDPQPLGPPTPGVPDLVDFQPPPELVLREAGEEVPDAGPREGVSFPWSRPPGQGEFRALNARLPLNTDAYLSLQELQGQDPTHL
# Method summary: cell-based or functional assay
Here the recorded Relative Proliferation Fold Change NKL 1:50 is given for each entry.
Respond with the bare value in fold.

Binder	Experimental value
ΔH16, S_VLKA (ligand) APTSSSTKKTQLQLSLLVLLKAILNGINNYKNPKLTRMLTFKFYMPKKATELKHLQCLEEELKPLEEVLNLAQSKNFHLRPRDLISNINVIVLELKGSETTFMCEYADETATIVEFLNRWITFCQSIISTLT	0.62
Q74S, SQVLKA (ligand) APTSSSTKKTQLQLSQLLVLLKAILNGINNYKNPKLTRMLTFKFYMPKKATELKHLQCLEEELKPLEEVLNLASSKNFHLRPRDLISNINVIVLELKGSETTFMCEYADETATIVEFLNRWITFCQSIISTLT	2.44
T3R, SQVLKA (ligand) APRSSSTKKTQLQLSQLLVLLKAILNGINNYKNPKLTRMLTFKFYMPKKATELKHLQCLEEELKPLEEVLNLAQSKNFHLRPRDLISNINVIVLELKGSETTFMCEYADETATIVEFLNRWITFCQSIISTLT	1.45

Then this binder:
Notebook: L18F, SQVLKA (ligand) APTSSSTKKTQLQLSQLFVLLKAILNGINNYKNPKLTRMLTFKFYMPKKATELKHLQCLEEELKPLEEVLNLAQSKNFHLRPRDLISNINVIVLELKGSETTFMCEYADETATIVEFLNRWITFCQSIISTLT , Relative Proliferation Fold Change NKL 1:50 read as 1.3
